Biological target: XIAP BIR3 protein (Homo sapiens, UniProt P98170)
Sequence (P98170 241-356 limits assumed): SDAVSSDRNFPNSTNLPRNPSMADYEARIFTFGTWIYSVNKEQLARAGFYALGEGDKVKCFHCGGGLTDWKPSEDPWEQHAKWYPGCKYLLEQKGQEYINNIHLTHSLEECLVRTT
Experiment: Fluorescence polarization competition binding assay, XIAP BIR3
Conditions: displacement of AVPIAQK(FAM)-OH, fluorescence polarization; read-out: Target Binding BIR3 Ki
Where a SMILES comes first, the peptide text is derived from it. [ ]: non-standard residue; d: D form. The star is where a group is joined. Pro(5R-(5-methylfur-2-yl)) = Cc1ccc([C@H]2CC[C@@H](C(=O)O)N2)o1; Chg = N[C@H](C(=O)O)C1CCCCC1; NMeA = CN[C@@H](C)C(=O)O; OBn = c1ccc(CO*)cc1
Rule: measured Ki below 600 nM gets label 1; anything equal to or greater than 600 nM gets label 0.

# COMPOUND, ASSIGNED_CATEGORY
measured = [
    ("CC[C@H](C)[C@H](NC(=O)[C@@H]1CC[C@H](c2ccc(C)o2)N1C(=O)[C@@H](NC(=O)[C@H](C)NC)C1CCCCC1)C(=O)OCc1ccccc1 [Compound 7] (H-[NMeA][Chg][Pro(5R-(5-methylfur-2-yl))]I-OBn)", "label 0"),
    ("Cc1ccc([C@H]2CC[C@@H](C(=O)NC(c3ccccc3)c3ccccc3)N2C(=O)[C@@H](NC(=O)[C@H](C)N)C(C)C)o1", "label 1"),
    ("CC[C@H](C)[C@H](NC(=O)[C@@H]1CC[C@H](c2ccc(C)o2)N1C(=O)[C@@H](NC(=O)[C@H](C)NC)C(C)C)C(=O)NC(c1ccccc1)c1ccccc1", "label 1"),
    ("CC[C@H](C)[C@H](NC(=O)[C@@H]1CC[C@H](c2ccc(C)o2)N1C(=O)[C@@H](NC(=O)[C@H](C)NC)C(C)C)C(=O)OCc1ccccc1", "label 0"),
    ("CC[C@H](C)[C@H](NC(=O)[C@@H]1CC[C@H](c2ccc(C)o2)N1C(=O)[C@@H](NC(=O)[C@H](C)N)C(C)C)C(=O)OCc1ccccc1", "label 0"),
    ("CN[C@@H](C)C(=O)N[C@H](C(=O)N1[C@@H](c2ccc(C)o2)CC[C@H]1C(=O)NC(c1ccccc1)c1ccccc1)C(C)C", "label 1"),
    ("CN[C@@H](C)C(=O)N[C@H](C(=O)N1[C@@H](c2ccc(C)o2)CC[C@H]1C(=O)NC(c1ccccc1)c1ccccc1)C1CCCCC1", "label 0"),
]

###

Assay: Pharmacokinetics of C6 in mice (IV, SC, oral)
Conditions: mouse, plasma, po, 30 mg/kg

# COMPOUND, MRT [h]
measured = [
    ("CC[C@H](C)[C@H](NC(=O)[C@@H]1CC[C@H](c2ccc(C)o2)N1C(=O)[C@@H](NC(=O)[C@H](C)NC)C(C)C)C(=O)NC(c1ccccc1)c1ccccc1 [Compound 6]", 4.18),
]

###

Test: Pharmacokinetics of C6 in mice (IV, SC, oral)
Conditions: mouse, plasma, sc, 30 mg/kg
RECORDED_METRIC: MRT (h)

# STRUCTURE, RECORDED_METRIC, MEASURED
rows = [
    ("CC[C@H](C)[C@H](NC(=O)[C@@H]1CC[C@H](c2ccc(C)o2)N1C(=O)[C@@H](NC(=O)[C@H](C)NC)C(C)C)C(=O)NC(c1ccccc1)c1ccccc1", "MRT", 8.92),
]

###

Assay: SRB cytotoxicity assay, VERO
Format: cell-based, monkey
Conditions: monkey, VERO cells; 10 μM, 48 hours, SRB assay; read-out: In vitro cytotoxicity at 10 μM dose, VERO (percent growth inhibition)
As shown below, each of these compounds has a reported inhibition at 48 h, 10 μM value.

# COMPOUND, UNIT, inhibition at 48 h, 10 μM
rows = [
    ("CC[C@H](C)[C@H](NC(=O)[C@@H]1CC[C@H](c2ccc(C)o2)N1C(=O)[C@@H](NC(=O)[C@H](C)N)C(C)C)C(=O)OCc1ccccc1 [Compound 2]", "%", 24.2),
    ("CN[C@@H](C)C(=O)N[C@H](C(=O)N1[C@@H](c2ccc(C)o2)CC[C@H]1C(=O)NC(c1ccccc1)c1ccccc1)C(C)C [Compound 5]", "%", 11.4),
    ("CC[C@H](C)[C@H](NC(=O)[C@@H]1CC[C@H](c2ccc(C)o2)N1C(=O)[C@@H](NC(=O)[C@H](C)NC)C(C)C)C(=O)OCc1ccccc1 [Compound 4]", "%", 4.54),
    ("Cc1ccc([C@H]2CC[C@@H](C(=O)NC(c3ccccc3)c3ccccc3)N2C(=O)[C@@H](NC(=O)[C@H](C)N)C(C)C)o1 [Compound 3]", "%", 3.89),
    ("CN[C@@H](C)C(=O)N[C@H](C(=O)N1[C@@H](c2ccc(C)o2)CC[C@H]1C(=O)NC(c1ccccc1)c1ccccc1)C1CCCCC1 [Compound 8]", "%", 39.4),
    ("CC[C@H](C)[C@H](NC(=O)[C@@H]1CC[C@H](c2ccc(C)o2)N1C(=O)[C@@H](NC(=O)[C@H](C)NC)C(C)C)C(=O)NC(c1ccccc1)c1ccccc1 [Compound 6]", "%", 18.4),
]

###

Test: in vivo
Settings: mouse, po, 30 mg/kg

# STRUCTURE, half-life, h
records = [
    ("CC[C@H](C)[C@H](NC(=O)[C@@H]1CC[C@H](c2ccc(C)o2)N1C(=O)[C@@H](NC(=O)[C@H](C)NC)C(C)C)C(=O)NC(c1ccccc1)c1ccccc1", 3.84),
]

###

Tested on: 4T1 cells
Test: SRB cytotoxicity assay, 4T1
Type: cell-based
Conditions: Breast (Mouse)
pIC50: −log10 of the molar value.

# COMPOUND, pIC50
records = [
    ("CC[C@H](C)[C@H](NC(=O)[C@@H]1CC[C@H](c2ccc(C)o2)N1C(=O)[C@@H](NC(=O)[C@H](C)NC)C(C)C)C(=O)NC(c1ccccc1)c1ccccc1 [Compound 6]", 5.38),
]

###

Below, each entry is listed with its recorded inhibition at 10 µM.
Test system: SW 620 cells
Experiment: SRB cytotoxicity assay, SW 620
Type: cell-based
Settings: Homo sapiens, SW-620; 10 μM, 48 hours, SRB assay; read-out: In vitro cytotoxicity at 10 μM dose, SW 620 (percent growth inhibition)
RECORDED_METRIC: inhibition at 10 µM (%)

# STRUCTURE, TARGET_OF_ASSAY, RECORDED_METRIC, MEASURED
data = [
    ("Cc1ccc([C@H]2CC[C@@H](C(=O)NC(c3ccccc3)c3ccccc3)N2C(=O)[C@@H](NC(=O)[C@H](C)N)C(C)C)o1", "SW 620 cells", "inhibition at 10 µM", 1.44),
    ("CN[C@@H](C)C(=O)N[C@H](C(=O)N1[C@@H](c2ccc(C)o2)CC[C@H]1C(=O)NC(c1ccccc1)c1ccccc1)C1CCCCC1", "SW 620 cells", "inhibition at 10 µM", 38.7),
    ("CN[C@@H](C)C(=O)N[C@H](C(=O)N1[C@@H](c2ccc(C)o2)CC[C@H]1C(=O)NC(c1ccccc1)c1ccccc1)C(C)C", "SW 620 cells", "inhibition at 10 µM", 8.11),
    ("CC[C@H](C)[C@H](NC(=O)[C@@H]1CC[C@H](c2ccc(C)o2)N1C(=O)[C@@H](NC(=O)[C@H](C)NC)C(C)C)C(=O)OCc1ccccc1", "SW 620 cells", "inhibition at 10 µM", -4.1),
    ("CC[C@H](C)[C@H](NC(=O)[C@@H]1CC[C@H](c2ccc(C)o2)N1C(=O)[C@@H](NC(=O)[C@H](C)N)C(C)C)C(=O)OCc1ccccc1", "SW 620 cells", "inhibition at 10 µM", 7.88),
    ("CC[C@H](C)[C@H](NC(=O)[C@@H]1CC[C@H](c2ccc(C)o2)N1C(=O)[C@@H](NC(=O)[C@H](C)NC)C(C)C)C(=O)NC(c1ccccc1)c1ccccc1", "SW 620 cells", "inhibition at 10 µM", 59.3),
]

###

Catalogue of Ki values
Target: XIAP BIR2 protein (Homo sapiens, UniProt P98170)
Sequence (P98170 124-240 limits assumed): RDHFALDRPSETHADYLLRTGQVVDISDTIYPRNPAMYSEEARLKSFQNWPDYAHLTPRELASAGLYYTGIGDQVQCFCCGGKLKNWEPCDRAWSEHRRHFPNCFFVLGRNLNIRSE
Test: Fluorescence polarization competition binding assay, XIAP BIR2
Details: displacement of AVPIAQK(FAM)-OH, fluorescence polarization; read-out: Target Binding BIR2 Ki
Where a SMILES comes first, the peptide text is derived from it. [ ]: non-standard residue; d: D form. The star is where a group is joined. Pro(5R-(5-methylfur-2-yl)) = Cc1ccc([C@H]2CC[C@@H](C(=O)O)N2)o1; Chg = N[C@H](C(=O)O)C1CCCCC1; NMeA = CN[C@@H](C)C(=O)O; OBn = c1ccc(CO*)cc1

# COMPOUND, TARGET_OF_ASSAY, OP, Ki, µM
records = [
    ("Cc1ccc([C@H]2CC[C@@H](C(=O)NC(c3ccccc3)c3ccccc3)N2C(=O)[C@@H](NC(=O)[C@H](C)N)C(C)C)o1", "XIAP BIR2 protein (Homo sapiens, UniProt P98170)", "=", 1.08),
    ("CN[C@@H](C)C(=O)N[C@H](C(=O)N1[C@@H](c2ccc(C)o2)CC[C@H]1C(=O)NC(c1ccccc1)c1ccccc1)C1CCCCC1", "XIAP BIR2 protein (Homo sapiens, UniProt P98170)", "=", 1.8),
    ("CC[C@H](C)[C@H](NC(=O)[C@@H]1CC[C@H](c2ccc(C)o2)N1C(=O)[C@@H](NC(=O)[C@H](C)NC)C(C)C)C(=O)OCc1ccccc1", "XIAP BIR2 protein (Homo sapiens, UniProt P98170)", "=", 7.39),
    ("CC[C@H](C)[C@H](NC(=O)[C@@H]1CC[C@H](c2ccc(C)o2)N1C(=O)[C@@H](NC(=O)[C@H](C)NC)C1CCCCC1)C(=O)OCc1ccccc1 [Compound 7] (H-[NMeA][Chg][Pro(5R-(5-methylfur-2-yl))]I-OBn)", "XIAP BIR2 protein (Homo sapiens, UniProt P98170)", ">", 10),
    ("CC[C@H](C)[C@H](NC(=O)[C@@H]1CC[C@H](c2ccc(C)o2)N1C(=O)[C@@H](NC(=O)[C@H](C)NC)C(C)C)C(=O)NC(c1ccccc1)c1ccccc1", "XIAP BIR2 protein (Homo sapiens, UniProt P98170)", "=", 3.21),
    ("CC[C@H](C)[C@H](NC(=O)[C@@H]1CC[C@H](c2ccc(C)o2)N1C(=O)[C@@H](NC(=O)[C@H](C)N)C(C)C)C(=O)OCc1ccccc1", "XIAP BIR2 protein (Homo sapiens, UniProt P98170)", ">", 10),
    ("CN[C@@H](C)C(=O)N[C@H](C(=O)N1[C@@H](c2ccc(C)o2)CC[C@H]1C(=O)NC(c1ccccc1)c1ccccc1)C(C)C", "XIAP BIR2 protein (Homo sapiens, UniProt P98170)", "=", 3.25),
]
